Target: rat CB-1 receptor (Rattus norvegicus)
Construct: The tissue obtained from the brain of SD rats was homogenized; from tissue; host or cells: brain of SD rats (membrane pellet of homogenate)
Sequence (P20272 whole entry): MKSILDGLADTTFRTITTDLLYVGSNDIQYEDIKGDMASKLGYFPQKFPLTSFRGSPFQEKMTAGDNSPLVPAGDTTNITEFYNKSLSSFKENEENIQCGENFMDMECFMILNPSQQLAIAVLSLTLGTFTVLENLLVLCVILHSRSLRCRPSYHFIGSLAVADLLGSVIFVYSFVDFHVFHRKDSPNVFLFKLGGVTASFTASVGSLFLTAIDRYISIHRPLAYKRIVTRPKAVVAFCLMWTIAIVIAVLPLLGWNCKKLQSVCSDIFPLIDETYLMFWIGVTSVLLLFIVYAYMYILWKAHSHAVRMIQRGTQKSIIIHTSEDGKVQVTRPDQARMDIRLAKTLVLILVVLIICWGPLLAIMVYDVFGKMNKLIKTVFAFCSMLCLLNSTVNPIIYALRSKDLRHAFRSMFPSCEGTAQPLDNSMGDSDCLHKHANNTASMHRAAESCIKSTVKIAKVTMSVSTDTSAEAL
Test: rat CB-1 receptor binding protocol with [3H]CP-55940
reported.property: pIC50
Give bare numbers, as −log10 of the molar value.

Here is how some compounds turned out for pIC50.
                                   compound  reading
0  CCc1c(-c2nnc(C(C)(C)C)o2)nc(-c2ccc(Cl)cc2Cl)n1-c1ccc(Cl)cc1     7.74
1  CCc1c(-c2nnc(C3(c4ccc(Cl)cc4Cl)CC3)o2)nc(-c2ccc(Cl)cc2Cl)n1-c1ccc(Br)cc1     8.09
2  CC(C)c1c(-c2nnc(C(C)(C)C)o2)nc(-c2ccc(Cl)cc2Cl)n1-c1ccc(Br)cc1     7.67

Hello, I would appreciate it if you could give pIC50 for each entry below.
1. FC(F)(F)C1(c2nnc(-c3nc(-c4ccc(Cl)cc4Cl)n(-c4ccc(Br)cc4)c3Cn3cncn3)o2)CCC1
2. Cc1c(-c2nnc(C3(C(F)(F)F)CCC3)o2)nc(-c2ccccc2Cl)n1-c1ccc(Br)cc1
3. Cc1c(-c2nnc(C3CCCCC3)o2)nc(-c2ccc(Cl)cc2Cl)n1-c1ccc(Br)cc1
4. CCc1c(-c2nnc(C3(c4ccc(Cl)cc4)CC3)o2)nc(-c2ccc(Cl)cc2Cl)n1-c1ccc(Br)cc1
5. CCc1c(-c2nnc(C3(c4ccccc4)CC3)o2)nc(-c2ccc(Cl)cc2Cl)n1-c1ccc(Br)cc1
6. Cc1c(-c2nnc(C3CCC3)o2)nc(-c2ccc(Cl)cc2Cl)n1-c1ccc(Br)cc1
7. CCc1c(-c2nnc(C3(c4ccc(OC)cc4)CC3)o2)nc(-c2ccc(Cl)cc2Cl)n1-c1ccc(Br)cc1

Solution:
1: 8.40; 2: 7.94; 3: 7.15; 4: 8.04; 5: 8.04; 6: 7.53; 7: 7.73

// for each compound in input: emit pIC50
1. CCc1c(-c2nnc(C3(C(F)(F)F)CCC3)o2)nc(-c2ccc(Cl)cc2Cl)n1-c1ccc(Br)cc1
2. Cc1c(-c2nnc(C(C)c3ccccc3)o2)nc(-c2ccc(Cl)cc2Cl)n1-c1ccc(Cl)cc1 (stereo not drawn)
3. CC(C)(C)c1nnc(-c2nc(-c3ccccc3Cl)n(-c3ccc(Br)cc3)c2Cn2cncn2)s1
4. CCc1c(-c2nnc(C3(C(F)(F)F)CCC3)o2)nc(-c2ccccc2Cl)n1-c1ccc(Br)cc1

Solution:
1. 8.02
2. 7.50
3. 8.40
4. 7.87

# per-item lookup of pIC50; items listed below
1. CC(C)(C)c1nnc(-c2nc(-c3ccc(Cl)cc3Cl)n(-c3ccc(Cl)cc3)c2C2CC2)s1
2. CCc1c(-c2nnc(C3(C(F)(F)F)CCC3)s2)nc(-c2ccccc2Cl)n1-c1ccc(Br)cc1

Solution:
1. 7.24
2. 8.27

# return pIC50 for each item in the list
1. CCCC(C)c1nnc(-c2nc(-c3ccc(Cl)cc3Cl)n(-c3ccc(Cl)cc3)c2C)o1 (stereo not drawn)
2. CCc1c(-c2nnc(C3(c4ccc(C)cc4)CC3)o2)nc(-c2ccc(Cl)cc2Cl)n1-c1ccc(Br)cc1
3. Cc1c(-c2nnc(C(C)C)o2)nc(-c2ccc(Cl)cc2Cl)n1-c1ccc(Cl)cc1
4. Cc1c(-c2nnc(C3CCCC3)o2)nc(-c2ccc(Cl)cc2Cl)n1-c1ccc(Cl)cc1
5. Cc1c(-c2nnc(C(C)(C)C)o2)nc(-c2ccccc2Cl)n1-c1ccc(Br)cc1

Solution:
7.85
8.08
7.59
7.45
7.50
